test_details: Single-dose pharmacokinetics in BALB/c mice
Type: in vivo
condition_details: BALB/c, mouse, plasma, im, BALB/c mice, alone (GC376 111 mg/kg; GS441524 67 mg/kg)
reported_metric: Cmax
In your response, the unit should come after the numeric value.

May I ask what Cmax has been recorded for N#C[C@@]1(c2ccc3c(N)ncnn23)O[C@H](CO)[C@@H](O)[C@H]1O [GS441524] ? 39600 ng/mL

May I ask what Cmax has been recorded for CC(C)CC(NC(=O)OCc1ccccc1)C(=O)NC(CC1CCNC1=O)C(O)S(=O)(=O)O (centres unmarked) [GC376] ? 46700 ng/mL
